Where do the numbers come from? From the supplement of paper PMC11061612.

tested on: T98G (Glioblastoma); assay: combination Emax (second highest fraction inhibited in the dose matrix, 72 h); higher = more inhibition; extreme values may be limits of the assay
REPORTED PROPERTY: combination Emax
Output spec: single numeric token, no unit.

As a guide, the following entries are already answered.
Assign combination Emax to the following record: C[C@@H](Nc1cc(F)cc(F)c1)c1cc(C(=O)N(C)C)cc2c(=O)cc(N3CCOCC3)oc12 [AZD8186] + C1CN(CCC1(C(=O)N[C@@H](CCO)C2=CC=C(C=C2)Cl)N)C3=NC=NC4=C3C=CN4 [AZD5363] (first compound max 10 µM, 7x7, partner max 10 µM)
0.562

Assign combination Emax to the following record: COc1cc2ncnc(Nc3ccc(F)c(Cl)c3)c2cc1OCCCN1CCOCC1 [Gefitinib] + CC(C)n1c(=O)n(C)c2cnc3cc(F)c(-c4ccc(OCCCN5CCCCC5)nc4)cc3c21 [AZD1390] (first compound max 10 µM, 7x7, partner max 0.3 µM)
0.12

Assign combination Emax to the following record: C[C@@H]1COCCN1c1cc(C2([S@](C)(=N)=O)CC2)nc(-c2ccnc3[nH]ccc23)n1 [AZD6738] + Nc1ccn([C@@H]2O[C@H](CO)[C@@H](O)C2(F)F)c(=O)n1 [Gemcitabine] (first compound max 10 µM, 7x7, partner max 0.3 µM)
0.858

Continuing:
Assign combination Emax to the following record: COc1cccc(OCCCN)c1-c1cc(Nc2cnc(C#N)cn2)n[nH]1 [Prexasertib] + CN(C)CCCOc1ccc(-c2ccc3ncc4c(c3c2)n(C2CCOCC2)c(=O)n4C)cn1 [AZD0156] (first compound max 1 µM, 7x7, partner max 1 µM)
0.899

====

tested on: OVCA420 (Ovarian Carcinoma); experiment: combination Emax (second highest fraction inhibited in the dose matrix, 72 h); higher = more inhibition; extreme values may be limits of the assay
REPORTED PROPERTY: combination Emax

Assign combination Emax to the following record: CN(CCO)CC[C@H](CSc1ccccc1)Nc1ccc(S(=O)(=O)NC(=O)c2ccc(N3CCC([C@@H](O)c4ccccc4-c4ccc(Cl)cc4)CC3)cc2)cc1S(=O)(=O)C(F)(F)F [AZD4320] + Cn1cnc2c(F)c(Nc3ccc(Br)cc3Cl)c(C(=O)NOCCO)cc21 [Selumetinib] (first compound max 1 µM, 7x7, partner max 3 µM)
0.451

Let us examine a further case.
Assign combination Emax to the following record: Cc1nc(Nc2ncc(C(=O)Nc3c(C)cccc3Cl)s2)cc(N2CCN(CCO)CC2)n1 [Dasatinib] + CC(=O)Nc1cccc(-n2c(=O)n(C3CC3)c(=O)c3c(Nc4ccc(I)cc4F)n(C)c(=O)c(C)c32)c1 [Trametinib] (first compound max 2 µM, 7x7, partner max 1 µM)
0.903

====

system: KYSE-520 (Esophageal Squamous Cell Carcinoma); test: combination Emax (second highest fraction inhibited in the dose matrix, 72 h); higher = more inhibition; extreme values may be limits of the assay
REPORTED PROPERTY: combination Emax
Output spec: single numeric token, no unit.

As a guide, the following entries are already answered.
Assign combination Emax to the following record: Cc1cc2ncnn2cc1Nc1ncc2c(n1)n(C1CCOCC1)c(=O)n2C [AZD7648] + CN(C)CCCOc1ccc(-c2ccc3ncc4c(c3c2)n(C2CCOCC2)c(=O)n4C)cn1 [AZD0156] (first compound max 10 µM, 7x7, partner max 1 µM)
0.305

Assign combination Emax to the following record: NC1(C(=O)N[C@@H](CCO)c2ccc(Cl)cc2)CCN(c2ncnc3[nH]ccc23)CC1 [Capivasertib] + CC(C)n1c(=O)n(C)c2cnc3cc(F)c(-c4ccc(OCCCN5CCCCC5)nc4)cc3c21 [AZD1390] (first compound max 10 µM, 7x7, partner max 0.3 µM)
0.467

Continuing:
Assign combination Emax to the following record: CN(CCO)CC[C@H](CSc1ccccc1)Nc1ccc(S(=O)(=O)NC(=O)c2ccc(N3CCC([C@@H](O)c4ccccc4-c4ccc(Cl)cc4)CC3)cc2)cc1S(=O)(=O)C(F)(F)F [AZD4320] + C1CN(CCC1(C(=O)N[C@@H](CCO)C2=CC=C(C=C2)Cl)N)C3=NC=NC4=C3C=CN4 [Capivasertib] (first compound max 1 µM, 7x7, partner max 3 µM)
0.329

====

tested on: T98G (Glioblastoma); test: Bliss excess, mean over the matrix (fraction); higher = more synergy
Bliss excess values for the compounds below.
Output spec: single numeric token, no unit.

As a guide, the following entries are already answered.
Assign Bliss excess to the following record: Cc1nc(Nc2ncc(C(=O)Nc3c(C)cccc3Cl)s2)cc(N2CCN(CCO)CC2)n1 [Dasatinib] + CC(=O)Nc1cccc(-n2c(=O)n(C3CC3)c(=O)c3c(Nc4ccc(I)cc4F)n(C)c(=O)c(C)c32)c1 [Trametinib] (first compound max 2 µM, 7x7, partner max 1 µM)
0.0187

Assign Bliss excess to the following record: Cc1c2c(nn1C)CSCc1cc(n(C)n1)CSc1cc(c3ccccc3c1)OCCCc1c(C(=O)O)n(C)c3c-2c(Cl)ccc13 [AZD5991] + C=CCn1c(=O)c2cnc(Nc3ccc(N4CCN(C)CC4)cc3)nc2n1-c1cccc(C(C)(C)O)n1 [AZD1775] (first compound max 1 µM, partner max 1 µM)
-0.0198

Assign Bliss excess to the following record: Cc1c2c(nn1C)CSCc1cc(n(C)n1)CSc1cc(c3ccccc3c1)OCCCc1c(C(=O)O)n(C)c3c-2c(Cl)ccc13 [AZD5991] + Nc1ccn([C@@H]2O[C@H](CO)[C@@H](O)C2(F)F)c(=O)n1 [Gemcitabine] (first compound max 1 µM, 7x7, partner max 0.3 µM)
0.0127

Let us examine a further case.
Assign Bliss excess to the following record: CCN(CCO)CCCOc1ccc2c(Nc3cc(CC(=O)Nc4cccc(F)c4)[nH]n3)ncnc2c1 [AZD2811] + O=C(c1cc(Cc2n[nH]c(=O)c3ccccc23)ccc1F)N1CCN(C(=O)C2CC2)CC1 [Olaparib] (first compound max 1 µM, 7x7, partner max 10 µM)
0.0112

====

Bliss excess values for the compounds below.
tested on: Hs-578-T (Breast Carcinoma); assay: Bliss excess, mean over the matrix (fraction); higher = more synergy
Output spec: single numeric token, no unit.

Give Bliss excess only, for CS(=O)(=O)CCNCc1ccc(-c2ccc3ncnc(Nc4ccc(OCc5cccc(F)c5)c(Cl)c4)c3c2)o1 [Lapatinib] + Cn1cnc2c(F)c(Nc3ccc(Br)cc3Cl)c(C(=O)NOCCO)cc21 [Selumetinib] (first compound max 10 µM, 7x7, partner max 10 µM) , using Hs-578-T (Breast Carcinoma) data.
-0.0311

Give Bliss excess only, for CC(=O)c1c(C)c2cnc(Nc3ccc(N4CCNCC4)cn3)nc2n(C2CCCC2)c1=O [Palbociclib] + Cc1c2c(nn1C)CSCc1cc(n(C)n1)CSc1cc(c3ccccc3c1)OCCCc1c(C(=O)O)n(C)c3c-2c(Cl)ccc13 [AZD5991] (first compound max 10 µM, 7x7, partner max 1 µM) , using Hs-578-T (Breast Carcinoma) data.
0.0238

Give Bliss excess only, for NC1(C(=O)N[C@@H](CCO)c2ccc(Cl)cc2)CCN(c2ncnc3[nH]ccc23)CC1 [Capivasertib] + CCN(CCO)CCCOc1ccc2c(Nc3cc(CC(=O)Nc4cccc(F)c4)[nH]n3)ncnc2c1 [AZD2811] (first compound max 10 µM, 7x7, partner max 1 µM) , using Hs-578-T (Breast Carcinoma) data.
-0.036

Continuing:
Give Bliss excess only, for COc1nnc2ccc(N3CCC(c4ccc(OCCN5CCN(C)C(=O)[C@H]5C)cc4)CC3)nn12 [AZD5153] + C=CCn1c(=O)c2cnc(Nc3ccc(N4CCN(C)CC4)cc3)nc2n1-c1cccc(C(C)(C)O)n1 [AZD1775] (first compound max 1 µM, partner max 1 µM) , using Hs-578-T (Breast Carcinoma) data.
-0.0661

====

combination Emax values for the compounds below.
system: Daoy (Other Solid Carcinomas); test: combination Emax (second highest fraction inhibited in the dose matrix, 72 h); higher = more inhibition; extreme values may be limits of the assay
Output spec: single numeric token, no unit.

As a guide, the following entries are already answered.
Assign combination Emax to the following record: CC1(C)CCC(CN2CCN(c3ccc(C(=O)NS(=O)(=O)c4ccc(NCC5CCOCC5)c([N+](=O)[O-])c4)c(Oc4cnc5[nH]ccc5c4)c3)CC2)=C(c2ccc(Cl)cc2)C1 [Venetoclax] + CCN(CCO)CCCOc1ccc2c(Nc3cc(CC(=O)Nc4cccc(F)c4)[nH]n3)ncnc2c1 [AZD2811] (first compound max 1 µM, 7x7, partner max 1 µM)
0.439

Assign combination Emax to the following record: Cc1cc2ncnn2cc1Nc1ncc2c(n1)n(C1CCOCC1)c(=O)n2C [AZD7648] + O=C(c1cc(Cc2n[nH]c(=O)c3ccccc23)ccc1F)N1CCN(C(=O)C2CC2)CC1 [Olaparib] (first compound max 10 µM, 7x7, partner max 10 µM)
0.357

Continuing:
Assign combination Emax to the following record: COc1cccc2c1C(=O)c1c(O)c3c(c(O)c1C2=O)C[C@@](O)(C(=O)CO)C[C@@H]3O[C@H]1C[C@H](N)[C@H](O)[C@H](C)O1 [Doxorubicin] + Cc1cc2ncnn2cc1Nc1ncc2c(n1)n(C1CCOCC1)c(=O)n2C [AZD7648] (first compound max 1 µM, 7x7, partner max 10 µM)
0.875

Assign combination Emax to the following record: COc1nnc2ccc(N3CCC(c4ccc(OCCN5CCN(C)C(=O)[C@H]5C)cc4)CC3)nn12 [AZD5153] + Cc1c2c(nn1C)CSCc1cc(n(C)n1)CSc1cc(c3ccccc3c1)OCCCc1c(C(=O)O)n(C)c3c-2c(Cl)ccc13 [AZD5991] (first compound max 1 µM, 7x7, partner max 1 µM)
0.801

Assign combination Emax to the following record: CN(CCO)CC[C@H](CSc1ccccc1)Nc1ccc(S(=O)(=O)NC(=O)c2ccc(N3CCC([C@@H](O)c4ccccc4-c4ccc(Cl)cc4)CC3)cc2)cc1S(=O)(=O)C(F)(F)F [AZD4320] + C[C@@H]1COCCN1C2=NC(=NC(=C2)C3(CC3)[S@](=N)(=O)C)C4=C5C=CNC5=NC=C4 [AZD6738] (first compound max 1 µM, 7x7, partner max 10 µM)
0.972

Assign combination Emax to the following record: Cc1c2c(nn1C)CSCc1cc(n(C)n1)CSc1cc(c3ccccc3c1)OCCCc1c(C(=O)O)n(C)c3c-2c(Cl)ccc13 [AZD5991] + CN(C)CCCOc1ccc(-c2ccc3ncc4c(c3c2)n(C2CCOCC2)c(=O)n4C)cn1 [AZD0156] (first compound max 1 µM, 7x7, partner max 1 µM)
0.223
